experiment: GLP acute systemic toxicity study with toxicokinetics, single IP dose; format: in vivo; settings: both sexes, Sprague-Dawley, plasma; rat, IP, dose levels other than 100 mg/kg/day, both genders; read-out: time to reach peak plasma concentrations (Tmax)
attribute_measured: Tmax

Reported Tmax, compound COc1ccc2[nH]cc(CCNC(=O)CC3C(=O)N(CCc4ccc(Cl)cc4Cl)CC(=O)N3CCc3cccs3)c2c1 (stereo not shown) [LPT99] : ____ 24 h

---

Molecular target: hERG (Homo sapiens)
Sequence (Q12809 whole entry): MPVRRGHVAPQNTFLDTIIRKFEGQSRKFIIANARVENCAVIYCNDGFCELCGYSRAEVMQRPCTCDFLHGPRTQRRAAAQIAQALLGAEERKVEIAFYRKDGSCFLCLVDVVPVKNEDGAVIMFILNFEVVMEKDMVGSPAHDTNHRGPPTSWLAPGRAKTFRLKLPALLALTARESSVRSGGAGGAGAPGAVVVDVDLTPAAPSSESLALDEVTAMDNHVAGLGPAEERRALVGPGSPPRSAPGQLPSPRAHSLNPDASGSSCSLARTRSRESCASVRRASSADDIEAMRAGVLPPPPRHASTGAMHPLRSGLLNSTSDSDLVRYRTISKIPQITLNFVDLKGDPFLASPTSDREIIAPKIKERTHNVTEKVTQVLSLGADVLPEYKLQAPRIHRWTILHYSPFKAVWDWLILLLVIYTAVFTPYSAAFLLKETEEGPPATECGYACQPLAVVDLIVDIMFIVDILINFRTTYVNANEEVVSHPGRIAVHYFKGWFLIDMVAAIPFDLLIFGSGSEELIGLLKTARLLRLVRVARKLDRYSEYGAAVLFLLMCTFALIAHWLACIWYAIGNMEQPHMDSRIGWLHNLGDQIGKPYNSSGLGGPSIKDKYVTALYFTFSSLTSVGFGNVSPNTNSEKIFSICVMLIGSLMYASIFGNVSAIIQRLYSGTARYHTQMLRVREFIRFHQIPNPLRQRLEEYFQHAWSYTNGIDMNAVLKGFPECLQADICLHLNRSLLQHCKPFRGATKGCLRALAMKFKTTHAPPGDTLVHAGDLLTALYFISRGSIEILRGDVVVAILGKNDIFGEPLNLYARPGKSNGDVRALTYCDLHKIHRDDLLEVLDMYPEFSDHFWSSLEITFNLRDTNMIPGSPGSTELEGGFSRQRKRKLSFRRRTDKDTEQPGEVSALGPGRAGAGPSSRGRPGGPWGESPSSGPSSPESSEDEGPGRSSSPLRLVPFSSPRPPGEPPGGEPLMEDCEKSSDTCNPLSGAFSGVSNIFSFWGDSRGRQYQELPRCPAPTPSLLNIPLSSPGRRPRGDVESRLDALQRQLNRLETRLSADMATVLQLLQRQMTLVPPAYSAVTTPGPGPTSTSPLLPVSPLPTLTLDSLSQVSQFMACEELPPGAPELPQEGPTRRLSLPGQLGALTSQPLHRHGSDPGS
Experiment: hERG automated patch clamp assay in hERG-CHO cells
Conditions: hERG-CHO cells, automated patch clamp
From the text: The potential cardiotoxicity of LPT99 was investigated in an assay using the hERG-CHO cells transfected with the automated patch clamp assay.
attribute_measured: pIC50
Numbers only, as −log10 of the molar value.

Kindly state the measured pIC50 obtained for COc1ccc2[nH]cc(CCNC(=O)CC3C(=O)N(CCc4ccc(Cl)cc4Cl)CC(=O)N3CCc3cccs3)c2c1 (stereo not shown) [LPT99] with hERG (Homo sapiens). 5.47
